assay: shake flask on a mixture of 185; loss from the water phase only; LC-Orbitrap peak areas; conditions: room
Exercise: for every item that follows, state its recorded log partition n-octane / HPLC water, unbuffered, traces of methanol / DMSO.
Note: a bare number is incomplete; add the unit.

Below, each entry is followed by its recorded log partition n-octane / HPLC water, unbuffered, traces of methanol / DMSO result.
CC(C)N1C(=O)c2ccccc2NS1(=O)=O | -0.654 log10
Cc1cc(C)nc(NS(=O)(=O)c2ccc(N)cc2)n1 | -0.6854 log10
Oc1c(Cl)ccc(Cl)c1Cl | 0.4223 log10
CN/C(=N/[N+](=O)[O-])NCC1CCOC1 (stereo not shown) | -1.349 log10
CC(=O)/C=C/c1ccccc1 | -0.655 log10

Could you tell me log partition n-octane / HPLC water, unbuffered, traces of methanol / DMSO for each of these compounds? They are listed below.
1. CCOc1ccc2[nH]cc(C(=O)NCc3ccccc3)c(=O)c2n1
2. Cc1ccc([N+](=O)[O-])cc1S(=O)(=O)O
3. CCCCCCC(O)CCCCCCCCCCC(=O)OC (stereo not shown)
4. O=C(OC1CCCCC1)c1ccccc1C(=O)OC1CCCCC1
5. CC(C)(C#N)Nc1nc(Cl)nc(NC2CC2)n1
6. CCCOC(=O)c1ccc(C(=O)OCCC)nc1
7. CCCCNS(=O)(=O)c1ccc(C)cc1
8. C=CC(=O)OCC1CC2CC1C1CCC(COC(=O)C=C)C21 (stereo not shown)

1. -1.139 log10
2. 0.3589 log10
3. -1.53 log10
4. -1.045 log10
5. 0.2329 log10
6. 1.355 log10
7. 0.4632 log10
8. -0.1158 log10

Could you tell me log partition n-octane / HPLC water, unbuffered, traces of methanol / DMSO for each of these compounds? They are listed below.
1. N#CC(c1ccccc1)c1ccccc1
2. CC(C)c1cccc(O)c1
3. C=C(C)C(=O)OCCOCCOC(=O)C(=C)C
4. O=P(OC(CCl)CCl)(OC(CCl)CCl)OC(CCl)CCl
5. Nc1ccc(/N=N/c2ccccc2)cc1
6. CC(C)C1(C)N=C(c2nc3ccccc3cc2C(=O)O)NC1=O (stereo not shown)
7. CN(C)c1ccc(Cc2ccc(N(C)C)cc2)cc1

1. -0.2917 log10
2. -0.6932 log10
3. -0.3242 log10
4. 0.2541 log10
5. 1.439 log10
6. -1.474 log10
7. 0.3458 log10

Could you tell me log partition n-octane / HPLC water, unbuffered, traces of methanol / DMSO for each of these compounds? They are listed below.
1. CCc1ccc(C(=O)NN(C(=O)c2cc(C)cc(C)c2)C(C)(C)C)cc1
2. Cc1cc(SCc2sc(-c3ccc(C(F)(F)F)c(F)c3)nc2C)ccc1OCC(=O)O
3. CC(=O)c1ccc2ccccc2c1
4. CCCCC(CC)C(=O)OCCOCCOCCOCCOC(=O)C(CC)CCCC (stereo not shown)
5. O=C(Nc1ccccc1-c1ccc(Cl)cc1)c1cccnc1Cl
6. CN1COCN(Cc2cnc(Cl)s2)C1=N[N+](=O)[O-]
7. OCCN(CCO)c1ccccc1

1: 1.432 log10; 2: -0.8266 log10; 3: 0.6442 log10; 4: -2.665 log10; 5: 1.841 log10; 6: -1.749 log10; 7: -0.9336 log10

Could you tell me log partition n-octane / HPLC water, unbuffered, traces of methanol / DMSO for each of these compounds? They are listed below.
1. CCCCCCOc1cc(C)c(O)c(C)c1C
2. c1ccc(CCCc2ccncc2)cc1
3. CCCCC(O)(Cn1cncn1)c1ccc(Cl)cc1Cl (stereo not shown)
4. CCCC1COC(Cn2cncn2)(c2ccc(Cl)cc2Cl)O1 (stereo not shown)
5. Nc1nc(Cl)nc2c1ncn2[C@H]1C[C@H](O)[C@@H](CO)O1
6. Cc1ccc(N)c(S(=O)(=O)O)c1
7. CCCCc1ccc(O)cc1

["-0.1513 log10", "-0.1298 log10", "2.104 log10", "0.3088 log10", "-1.209 log10", "-0.1323 log10", "-0.6939 log10"]

Could you tell me log partition n-octane / HPLC water, unbuffered, traces of methanol / DMSO for each of these compounds? They are listed below.
1. CC(=O)CCc1ccc(OC(C)=O)cc1
2. CCCCNS(=O)(=O)c1ccccc1
3. COC(=O)c1sccc1S(N)(=O)=O
4. O=C(O)c1ccccc1C(c1ccc(O)cc1)c1ccc(O)cc1

1: -1.39 log10; 2: -0.4356 log10; 3: -1.192 log10; 4: -1.232 log10

Could you tell me log partition n-octane / HPLC water, unbuffered, traces of methanol / DMSO for each of these compounds? They are listed below.
1. CO/N=C(/C1=NOCCO1)c1ccccc1Oc1ncnc(Oc2ccccc2Cl)c1F
2. c1coc(-c2nc3ccccc3[nH]2)c1
3. CCCCCCCCCCCC(=O)OCC(O)CO (stereo not shown)

1.336 log10
-0.314 log10
-1.639 log10

Could you tell me log partition n-octane / HPLC water, unbuffered, traces of methanol / DMSO for each of these compounds? They are listed below.
1. C[C@H](CCC(=O)O)[C@H]1CC[C@H]2[C@@H]3CC[C@@H]4C[C@H](O)CC[C@]4(C)[C@H]3CC[C@]12C
2. Cc1cc2c3c(c1)C(c1ccccc1)=N[C@@H](NC(=O)c1ccncc1)C(=O)N3CC2
3. O=C(O)CCN(C1(C(=O)NO)CCCC1)S(=O)(=O)c1ccc(Oc2ccc(F)cc2)cc1
4. O=C1OC(=O)C2C3C=CC(C3)C12 (stereo not shown)

0.2702 log10
0.088 log10
-1.686 log10
-1.742 log10

Could you tell me log partition n-octane / HPLC water, unbuffered, traces of methanol / DMSO for each of these compounds? They are listed below.
1. CC(C)(C)c1ccc(O)c(O)c1
2. CCCCNC(=S)NCCCC
3. O=C(c1ccccc1)c1ccc(O)cc1O
4. CCc1nn(C)c(C(=O)NCc2ccc(C(C)(C)C)cc2)c1Cl

-0.4633 log10
0.07134 log10
-0.7644 log10
1.395 log10

---

test: shake flask on a mixture of 185; loss from the water phase only; LC-Orbitrap peak areas; conditions: room
Rule: log partition n-undecane / HPLC water, unbuffered, traces of methanol / DMSO of -0.2 log10 or more gives Yes; anything lower gives No.

Please review the following examples before continuing.
Cc1cc2c3c(c1)C(c1ccccc1)=N[C@@H](NC(=O)c1ccncc1)C(=O)N3CC2 | Yes
CCCCNS(=O)(=O)c1ccc(C)cc1 | Yes
Cc1cc(SCc2sc(-c3ccc(C(F)(F)F)c(F)c3)nc2C)ccc1OCC(=O)O | No

In plain terms: is recorded log partition n-undecane / HPLC water, unbuffered, traces of methanol / DMSO at least -0.2 log10 for Cc1ccc([N+](=O)[O-])cc1S(=O)(=O)O ? Yes

In plain terms: is recorded log partition n-undecane / HPLC water, unbuffered, traces of methanol / DMSO at least -0.2 log10 for O=C(O)c1ccccc1C(c1ccc(O)cc1)c1ccc(O)cc1 ? No

---

test: shake flask on a mixture of 185; loss from the water phase only; LC-QTOF peak areas; conditions: room
Exercise: for every item that follows, state its recorded log partition n-undecane / HPLC water, unbuffered, traces of methanol / DMSO.
Numbers only, in log10.

Oc1c(Cl)cc(Cl)c(Cl)c1Cc1c(O)c(Cl)cc(Cl)c1Cl | 2.251

Could you tell me log partition n-undecane / HPLC water, unbuffered, traces of methanol / DMSO for each of these compounds? They are listed below.
1. CN(C1CCCCC1)S(=O)(=O)c1ccccc1N
2. Cc1oncc1C(=O)Nc1ccc(C(F)(F)F)cc1
3. CCCOC(=O)c1ccc(C(=O)OCCC)nc1
4. Oc1c(Cl)cc(Cl)cc1Sc1cc(Cl)cc(Cl)c1O

-0.8537
0.08618
2.019
0.844

Could you tell me log partition n-undecane / HPLC water, unbuffered, traces of methanol / DMSO for each of these compounds? They are listed below.
1. Cn1cnc([N+](=O)[O-])c1Sc1ncnc2nc[nH]c12
2. CO/C=C(/C(=O)OC)c1ccccc1Oc1cc(Oc2ccccc2C#N)ncn1
3. CCc1ccc(C(=O)NN(C(=O)c2cc(C)cc(C)c2)C(C)(C)C)cc1
4. c1coc(-c2nc3ccccc3[nH]2)c1

1. -2.232
2. 0.5559
3. 0.8541
4. -1.111

Could you tell me log partition n-undecane / HPLC water, unbuffered, traces of methanol / DMSO for each of these compounds? They are listed below.
1. CCCCNS(=O)(=O)c1ccc(C)cc1
2. Cc1ccc([N+](=O)[O-])cc1S(=O)(=O)O

[0.4324, 0.4122]

---

experiment: shake flask on a mixture of 185; loss from the water phase only; LC-Orbitrap peak areas; settings: room
Rule: log partition cyclohexane / HPLC water, unbuffered, traces of methanol / DMSO of -0.9 log10 or more gives Y; anything lower gives N.

Please review the following examples before continuing.
CCCCOC(=O)C(C)Oc1ccc(Oc2ccc(C(F)(F)F)cn2)cc1 (stereo not shown) | Y
Cc1oncc1C(=O)Nc1ccc(C(F)(F)F)cc1 | Y
c1coc(-c2nc3ccccc3[nH]2)c1 | Y
CCc1nn(C)c(C(=O)NCc2ccc(C(C)(C)C)cc2)c1Cl | Y
O=C(O)CCN(C1(C(=O)NO)CCCC1)S(=O)(=O)c1ccc(Oc2ccc(F)cc2)cc1 | N
c1ccc2[nH]c(-c3cscn3)nc2c1 | Y

In plain terms: is recorded log partition cyclohexane / HPLC water, unbuffered, traces of methanol / DMSO at least -0.9 log10 for CCCCCCCCCCCC(=O)OCC(O)CO (stereo not shown) ? N
